Origin of the recorded values: paper PMC11149917

Test: Mouse blood and tissue PK (LC/MS-MS)
Assay type: in vivo
Conditions: BALB/c nude, mouse, ear skin, oral, 100 mg/kg, sheet Ear Skin, model Capan-2, study Capan-2 #3_PHA 2023, 100 mg/kg, 2h; read-out: RMC-6236 (nM) Tumor
Experimental: For single-dose PKPD study, mice were randomized and assigned into groups (n = 3/dose/time point). […] Blood and tissues, including the tumor, brain, colon, ear skin, and muscle, were harvested at indicated time points. […] The whole blood, tumor, brain, colon, and ear skin concentrations of RMC-6236 were determined using liquid chromatography–tandem mass spectrometry (LC/MS-MS) methods. […] Concentrations reported as below the quantification limit were treated as zero for PK analysis. […]
Experimental endpoint: concentration at 2 h (nM)
# number only, unit nM dropped from output

Record CCn1c(-c2cc(N3CCN(C)CC3)cnc2[C@H](C)OC)c2c3cc(ccc31)-c1csc(n1)C[C@H](NC(=O)[C@H]1C[C@@H]1C)C(=O)N1CCC[C@H](N1)C(=O)OCC(C)(C)C2 [RMC-6236] , field concentration at 2 h: 12300

* * *

experiment: Mouse blood and tissue PK (LC/MS-MS); type: in vivo; conditions: BALB/c nude, mouse, tumor, oral, 100 mg/kg, Capan-2, study Capan-2 #3_PHA 2023, 100 mg/kg, 8h; read-out: RMC-6236 (nM) Tumor
Experimental endpoint: concentration at 8 h (nM)
# number only, unit nM dropped from output

Record CCn1c(-c2cc(N3CCN(C)CC3)cnc2[C@H](C)OC)c2c3cc(ccc31)-c1csc(n1)C[C@H](NC(=O)[C@H]1C[C@@H]1C)C(=O)N1CCC[C@H](N1)C(=O)OCC(C)(C)C2 , field concentration at 8 h: 7500

* * *

experiment: Mouse blood and tissue PK (LC/MS-MS); assay type: in vivo; conditions: BALB/c nude, mouse, tumor, oral, 50 mg/kg, sheet colon; Capan-2, Capan-2 #3_PHA 2023; 50 mg/kg, 2h; read-out: RMC-6236 (nM) Tumor
Experimental endpoint: concentration at 2 h (nM)
# number only, unit nM dropped from output

Record CCn1c(-c2cc(N3CCN(C)CC3)cnc2[C@H](C)OC)c2c3cc(ccc31)-c1csc(n1)C[C@H](NC(=O)[C@H]1C[C@@H]1C)C(=O)N1CCC[C@H](N1)C(=O)OCC(C)(C)C2 [RMC-6236] , field concentration at 2 h: 21800

* * *

assay: Mouse blood and tissue PK (LC/MS-MS); assay type: in vivo; details: BALB/c nude, mouse, tumor, oral, 10 mg/kg, Capan-2, study Capan-2 #3_PHA 2023, 10 mg/kg, 24h; read-out: RMC-6236 (nM) Tumor
Experimental endpoint: concentration at 24 h
Be sure to follow the number with its unit.

Record CCn1c(-c2cc(N3CCN(C)CC3)cnc2[C@H](C)OC)c2c3cc(ccc31)-c1csc(n1)C[C@H](NC(=O)[C@H]1C[C@@H]1C)C(=O)N1CCC[C@H](N1)C(=O)OCC(C)(C)C2 [RMC-6236] , field concentration at 24 h: 563 nM

* * *

assay: Mouse blood and tissue PK (LC/MS-MS); format: in vivo; conditions: mouse, whole blood, po, 10 mg/kg, NCI-H441 (10 mg/kg), single dose
Experimental endpoint: Cmax (ng/mL)
# number only, unit ng/mL dropped from output

Record CCn1c(-c2cc(N3CCN(C)CC3)cnc2[C@H](C)OC)c2c3cc(ccc31)-c1csc(n1)C[C@H](NC(=O)[C@H]1C[C@@H]1C)C(=O)N1CCC[C@H](N1)C(=O)OCC(C)(C)C2 , field Cmax: 520
